src = patent US20100172907A1

# tgt: T1, Aβ (1-42) peptide (human)
# T1 construct: also called Aβ1-42 fibers; Aβ4
# procedureDetails: SPR, kinetic fit, immobilized fibers;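 further: surface plasmon resonance on a Biacore chip bearing in vitro formed Aβ1-40 or Aβ1-42 fibers, KD taken as koff/kon by fitting time-resolved sensor responses, based on total Fab concentration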
Collected Kd values appear next to each entry.
The reply should contain only the number, in nM.

Below, 3 binders whose answers are already recorded.
[[record]]
binder = "MS-Roche #7.4H2×7.2L1 Fab (Fab, V domains shown, cross-cloned Fab; VH entry starts at QLVESGG) VH: QLVESGGGLVQPGGSLRLSCAASGFTFSSYAMSWVRQAPGKGLEWVSAINYNGARIYYADSVKGRFTISRDNSKNTLYLQMNSLRAEDTAVYYCARGKGNTHKPYGYVRYFDVWGQGTLVTVSS VL: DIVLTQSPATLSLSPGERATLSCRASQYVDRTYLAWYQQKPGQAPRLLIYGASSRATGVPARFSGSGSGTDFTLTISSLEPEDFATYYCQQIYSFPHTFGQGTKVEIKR"
unitlabel = "nM"
val = 1.4

[[record]]
binder = "MS-Roche #3.4H7×3.4L9 Fab (Fab, V domains shown, cross-cloned Fab) VH: QLVESGGGLVQPGGSLRLSCAASGFTFSSYAMSWVRQAPGKGLEWVSVISETGKNIYYADSVKGRFTISRDNSKNTLYLQMNSLRAEDTAVYYCARLTHYARYYRYFDVWGQGTLVTVSS VL: DIVLTQSPATLSLSPGERATLSCRASRRIHVYYLAWYQQKPGQAPRLLIYGASSRATGVPARFSGSGSGTDFTLTISSLEPEDFATYYCQQTYDYPPTFGQGTKVEIKR"
unitlabel = "nM"
val = 3.51

[[record]]
binder = "MS-Roche #7.4H2×7.12L2 Fab (Fab, V domains shown, cross-cloned Fab) VH: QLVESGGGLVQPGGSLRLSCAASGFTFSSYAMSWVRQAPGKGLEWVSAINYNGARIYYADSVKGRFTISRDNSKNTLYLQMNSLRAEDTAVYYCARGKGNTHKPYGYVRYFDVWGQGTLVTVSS VL: DIVLTQSPATLSLSPGERATLSCRASQRFFYKYLAWYQQKPGQAPRLLISGSSNRATGVPARFSGSGSGTDFTLTISSLEPEDFAVYYCLQLYNIPNTFGQGTKVEIKR"
unitlabel = "nM"
val = 1.8


# next binder below
# lookup: Kd of MS-Roche #3.4H7×3.4L7 Fab (Fab, V domains shown, cross-cloned Fab) VH: QLVESGGGLVQPGGSLRLSCAASGFTFSSYAMSWVRQAPGKGLEWVSVISETGKNIYYADSVKGRFTISRDNSKNTLYLQMNSLRAEDTAVYYCARLTHYARYYRYFDVWGQGTLVTVSS VL: DIVLTQSPATLSLSPGERATLSCRASQRLGRLYLAWYQQKPGQAPRLLIYGASSRATGVPARFSGSGSGTDFTLTISSLEPEDFATYYCQQTYDYPPTFGQGTKVEIKR
1.23
